Some compounds, each annotated with its measured Ki.
# assay.system: PRMT5/MEP50 (Homo sapiens, UniProt O14744)
# experimental.details: MTase-Glo methyl transferase assay, Method B (FL-Histone H2A, 1 µM MTA, 1 h pre-incubation)
# Assay type: biochemical
# Design: purchased Reaction Biology Corp RD-11-292
# test.settings: read-out: PRMT5 MTase Glo Ki (nM, Meth. B)
# Sequence (O14744 2-637 limits assumed): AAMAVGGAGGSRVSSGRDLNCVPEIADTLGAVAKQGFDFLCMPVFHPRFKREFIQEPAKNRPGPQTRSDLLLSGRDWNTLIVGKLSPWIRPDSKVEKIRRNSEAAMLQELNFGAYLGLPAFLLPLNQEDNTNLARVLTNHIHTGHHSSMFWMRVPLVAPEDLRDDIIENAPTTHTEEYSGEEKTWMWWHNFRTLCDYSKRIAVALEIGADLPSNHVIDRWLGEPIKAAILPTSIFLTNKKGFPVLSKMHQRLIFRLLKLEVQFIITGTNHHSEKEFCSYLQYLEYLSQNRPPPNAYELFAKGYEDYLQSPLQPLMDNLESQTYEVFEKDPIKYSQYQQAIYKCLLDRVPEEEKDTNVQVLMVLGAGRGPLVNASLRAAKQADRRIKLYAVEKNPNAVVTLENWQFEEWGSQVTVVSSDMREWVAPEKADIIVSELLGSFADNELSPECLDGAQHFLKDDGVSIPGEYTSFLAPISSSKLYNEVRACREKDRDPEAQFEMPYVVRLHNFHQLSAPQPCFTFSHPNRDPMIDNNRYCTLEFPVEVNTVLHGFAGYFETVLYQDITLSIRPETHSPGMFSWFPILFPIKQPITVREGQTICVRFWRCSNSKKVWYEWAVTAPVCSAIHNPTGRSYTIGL
# Sequence (Q9BQA1 2-342 partner limits assumed): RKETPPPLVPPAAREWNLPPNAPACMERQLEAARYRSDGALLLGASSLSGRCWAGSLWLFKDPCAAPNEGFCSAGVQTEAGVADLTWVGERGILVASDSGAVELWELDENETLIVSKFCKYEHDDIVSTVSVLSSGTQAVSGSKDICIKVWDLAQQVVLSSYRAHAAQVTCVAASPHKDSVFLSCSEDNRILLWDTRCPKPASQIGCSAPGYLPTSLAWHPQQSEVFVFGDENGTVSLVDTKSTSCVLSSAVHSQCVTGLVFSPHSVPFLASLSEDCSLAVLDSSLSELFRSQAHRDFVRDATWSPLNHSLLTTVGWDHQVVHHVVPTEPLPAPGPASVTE
readout.name: Ki (nM)

- compound: "Cc1cc2cc(C(=O)N(Cc3ccc4c(c3)CNC4=O)Cc3ccc(C(F)(F)F)cn3)ccc2nc1N [Example 636]"
  readout.name: "Ki"
  measured.result: 2.3
- compound: "Cc1cc2cc(C(=O)N(Cc3ccc(C(F)(F)F)cn3)C3CCCC(O)C3)ccc2nc1N (stereo not shown) [Example 612]"
  readout.name: "Ki"
  measured.result: 7.56
- compound: "Cc1cc2cc(C(=O)N(Cc3ccc4[nH]c(=O)oc4c3)Cc3ccc(C(F)(F)F)cn3)ccc2nc1N [Example 620]"
  readout.name: "Ki"
  measured.result: 1.83
- compound: "Cc1cc2cc(C(=O)N(Cc3ccc(C(F)(F)F)cn3)C3CC4(C3)CC(F)(F)C4)ccc2nc1N [Example 698]"
  readout.name: "Ki"
  measured.result: 36.4
- compound: "Cc1cc2cc(C(=O)N(Cc3ccc(CO)c(F)c3)Cc3ccc(C(F)(F)F)cn3)ccc2nc1N [Example 566]"
  readout.name: "Ki"
  measured.result: 4.58
- compound: "Cc1cc2cc(C(=O)N(Cc3ccc(C(F)(F)F)cn3)Cc3ccccc3-n3cccn3)ccc2nc1N [Example 654]"
  readout.name: "Ki"
  measured.result: 5.61
- compound: "Cc1cc2cc(C(=O)N(Cc3ccc(C(F)(F)F)cn3)CC(C)C3CC3)ccc2nc1N (stereo not shown) [Example 575]"
  readout.name: "Ki"
  measured.result: 2.89
- compound: "Cc1cc2cc(C(=O)N(Cc3ccc(C(F)(F)F)cn3)CC3CCOCC3C)ccc2nc1N (stereo not shown) [Example 596]"
  readout.name: "Ki"
  measured.result: 17.1
- compound: "Cc1cc2cc(C(=O)N(Cc3ccc(C(F)(F)F)cn3)C3CCCC3C#N)c(F)cc2nc1N (stereo not shown) [Example 702]"
  readout.name: "Ki"
  measured.result: 5.12
- compound: "Cc1cc2cc(C(=O)N(Cc3cccc(O)c3)Cc3ccc(C(F)(F)F)cn3)ccc2nc1N [Example 600]"
  readout.name: "Ki"
  measured.result: 1.83
- compound: "Cc1cc2cc(C(=O)N(Cc3cccc(-n4cncn4)c3)Cc3ccc(C(F)(F)F)cn3)ccc2nc1N [Example 649]"
  readout.name: "Ki"
  measured.result: 2.69
- compound: "Cc1cc2cc(C(=O)N(Cc3ccc(O)cc3)Cc3ccnc4[nH]ccc34)ccc2nc1N [Example 688]"
  readout.name: "Ki"
  measured.result: 1.41
- compound: "Cc1cc2cc(C(=O)N(Cc3ccc(C(F)(F)F)cn3)CC3CCc4[nH]cnc4C3)ccc2nc1N (stereo not shown) [Example 617]"
  readout.name: "Ki"
  measured.result: 1.72

----------
# assay.system: PRMT5/MEP50 (Homo sapiens)
# experimental.details: MTase-Glo methyl transferase assay, Method A (Histone H4 peptide, 1 µM MTA, 24 h pre-incubation)
# Assay type: biochemical
# Design: made in house
# test.settings: read-out: PRMT5 MTase Glo Ki (nM, Meth. A)
# Sequence (O14744 whole entry): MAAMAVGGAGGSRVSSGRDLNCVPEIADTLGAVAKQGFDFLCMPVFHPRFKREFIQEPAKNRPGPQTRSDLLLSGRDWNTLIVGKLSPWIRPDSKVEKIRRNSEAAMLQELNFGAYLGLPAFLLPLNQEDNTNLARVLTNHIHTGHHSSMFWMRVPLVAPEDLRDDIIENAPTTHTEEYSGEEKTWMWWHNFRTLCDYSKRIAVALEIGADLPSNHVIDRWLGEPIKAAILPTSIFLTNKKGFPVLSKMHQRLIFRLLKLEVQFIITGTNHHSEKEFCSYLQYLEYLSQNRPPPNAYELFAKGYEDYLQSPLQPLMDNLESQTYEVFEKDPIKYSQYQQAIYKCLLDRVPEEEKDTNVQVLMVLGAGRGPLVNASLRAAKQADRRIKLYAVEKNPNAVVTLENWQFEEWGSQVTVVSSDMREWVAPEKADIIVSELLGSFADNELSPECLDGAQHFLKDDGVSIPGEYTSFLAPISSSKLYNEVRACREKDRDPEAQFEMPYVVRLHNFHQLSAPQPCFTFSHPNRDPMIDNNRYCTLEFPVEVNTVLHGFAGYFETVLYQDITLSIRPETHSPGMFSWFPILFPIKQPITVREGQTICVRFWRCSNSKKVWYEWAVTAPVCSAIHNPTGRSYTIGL
# Sequence (Q9BQA1 whole entry partner): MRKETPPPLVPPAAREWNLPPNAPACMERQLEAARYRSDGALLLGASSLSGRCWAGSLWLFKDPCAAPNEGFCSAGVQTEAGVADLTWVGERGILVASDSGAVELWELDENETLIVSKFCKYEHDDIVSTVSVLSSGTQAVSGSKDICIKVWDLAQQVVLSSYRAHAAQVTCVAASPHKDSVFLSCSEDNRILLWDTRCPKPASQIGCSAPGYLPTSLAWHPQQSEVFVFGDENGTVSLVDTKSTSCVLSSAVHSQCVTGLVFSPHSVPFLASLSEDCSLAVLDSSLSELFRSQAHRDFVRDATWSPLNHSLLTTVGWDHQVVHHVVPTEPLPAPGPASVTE

- compound: "Cc1nc([C@@H](C)N(Cc2ccc(C(F)F)cn2)C(=O)c2ccc3nc(N)c(C)cc3c2)no1 (single isomer, unassigned) [Example 534]"
  Ki, nM: 0.33
- compound: "Cc1cc2cc(C(=O)N(Cc3ccc(C#N)cn3)[C@H](C)c3ncc(F)cc3F)ccc2nc1N [Example 431]"
  Ki, nM: 0.07
- compound: "CC(=O)N1CCC(c2ccc(CN(C(=O)c3ccc4nc(N)c(C)cc4c3)[C@H](C)c3ncccn3)nc2)CC1 [Example 552]"
  Ki, nM: 0.32
- compound: "COc1nc(C(F)(F)F)ccc1CN(C(=O)c1ccc2nc(N)c(C)cc2c1)[C@H](C)c1ncccn1 (single isomer, unassigned) [Example 469]"
  Ki, nM: 0.03
- compound: "Cc1cc2cc(C(=O)N(Cc3ccc(C(F)(F)F)cn3)Cc3ncccc3Cl)ccc2nc1N [Example 303]"
  Ki, nM: 0.01
- compound: "C[C@H](c1ncccn1)N(Cc1ccc(C#N)cn1)C(=O)c1ccc2nc(N)c(Br)cc2c1 [Example 417]"
  Ki, nM: 0.33
- compound: "COc1ccc(CN(C(=O)c2ccc3nc(N)c(C)cc3c2)[C@@H]2CCC[C@H]2O)nn1 [Example 367]"
  Ki, nM: 0.41
- compound: "Nc1nc2ncc(C(=O)N(Cc3ccc(C(F)(F)F)cn3)[C@@H]3CCCc4nccnc43)cc2cc1Br (single isomer, unassigned) [Example 467]"
  Ki, nM: 0.21
- compound: "C[C@H](c1ncccn1)N(Cc1ccc(C(F)(F)F)cn1)C(=O)c1cc2cc(Cl)c(N)nc2cn1 [Example 422]"
  Ki, nM: 0.2
- compound: "Cc1cc2cc(C(=O)N(Cc3ccc(C(F)F)cn3)[C@H](C)c3ncccn3)cnc2nc1N [Example 409]"
  Ki, nM: 0.24
- compound: "Cc1cc2cc(C(=O)N(Cc3ccc(C(F)(F)F)cn3)CC(C)C)c(F)cc2nc1N [Example 314]"
  Ki, nM: 0.35
- compound: "C[C@H](c1ncccn1)N(Cc1ccc(C(F)(F)F)cn1)C(=O)c1ccc2nc(N)c(Cl)cc2c1 [Example 347]"
  Ki, nM: 0.17
- compound: "Cc1cc([C@@H](C)N(Cc2ccc(C(F)(F)F)cn2)C(=O)c2ccc3nc(N)c(C)cc3c2)no1 [Example 392]"
  Ki, nM: 0.5
- compound: "Cc1cc2cc(C(=O)N(Cc3ccc(C(F)(F)F)nn3)[C@H](C)c3ncccc3F)ccc2nc1N [Example 510]"
  Ki, nM: 0.32
- compound: "Cc1cc2cc(C(=O)N(Cc3ccc(C4CC4)cn3)CC(C)C)ccc2nc1N [Example 546]"
  Ki, nM: 1.09
- compound: "C[C@H](c1ncccn1)N(Cc1ccc(C(F)(F)F)cn1)C(=O)c1cc2cc(Br)c(N)nc2cn1 [Example 419]"
  Ki, nM: 0.16
- compound: "Nc1nc2ncc(C(=O)N(Cc3ccc(C(F)(F)F)cn3)[C@@H](c3ncccn3)C3CC3)cc2cc1Br [Example 373]"
  Ki, nM: 0.03
- compound: "COC(=O)c1ccc(CN(C(=O)c2ccc3nc(N)c(C)cc3c2)[C@H](C)c2ncccc2F)nc1 [Example 403]"
  Ki, nM: 0.55
- compound: "Cc1cc2cc(C(=O)N(Cc3ccc(C(F)(F)F)nc3)[C@H](C)c3ncccn3)ccc2nc1N (single isomer, unassigned) [Example 477]"
  Ki, nM: 0.11
- compound: "Cc1cc2cc(C(=O)N(Cc3ccc(C(F)(F)F)cn3)[C@@H]3CCCc4ccncc43)ccc2nc1N [Example 323]"
  Ki, nM: 0.36
- compound: "Cc1cc2cc(C(=O)N(Cc3ccc(Cl)cn3)CC(C)C)ccc2nc1N [Example 330]"
  Ki, nM: 1.87
- compound: "Cc1cc2cc(C(=O)N(Cc3ccc(Br)cn3)[C@H](C)c3ncccc3F)ccc2nc1N [Example 400]"
  Ki, nM: 0.05
- compound: "C[C@H](c1ncn(C)n1)N(Cc1ccc(C(F)F)cn1)C(=O)c1cnc2nc(N)c(Br)cc2c1 (single isomer, unassigned) [Example 535]"
  Ki, nM: 0.34
- compound: "C[C@H](c1ncccc1F)N(Cc1ccc(C(F)(F)F)cn1)C(=O)c1cnc2nc(N)c(Br)cc2c1 [Example 388]"
  Ki, nM: 0.15
- compound: "Cc1cc2cc(C(=O)N(Cc3ccc(C(F)(F)F)cn3)[C@@H]3CCCc4cn[nH]c43)ccc2nc1N (single isomer, unassigned) [Example 527]"
  Ki, nM: 0.05
- compound: "Cc1cc2cc(C(=O)N(Cc3ccc(C#N)cn3)[C@H](C)c3ncccn3)ccc2nc1N [Example 502]"
  Ki, nM: 0.06
- compound: "Cc1cc2cc(C(=O)N(CC(C)C)[C@H](C)c3ccc(C(F)(F)F)cn3)ccc2nc1N (single isomer, unassigned) [Example 472]"
  Ki, nM: 1.04
- compound: "C[C@H](c1ncccn1)N(Cc1ccc(C(F)(F)F)cn1)C(=O)c1ccc2nc(N)cc(Cl)c2c1 [Example 433]"
  Ki, nM: 1.26
- compound: "Nc1nc2ccc(C(=O)N(Cc3ccc(C(F)(F)F)cn3)Cc3ncccn3)cc2cc1Br [Example 317]"
  Ki, nM: 0.56
